- TARGET_UNDER_TEST: 5-hydroxytryptamine receptor 4 (Homo sapiens)
- Sequence (Q13639 whole entry, the tested form may be a part): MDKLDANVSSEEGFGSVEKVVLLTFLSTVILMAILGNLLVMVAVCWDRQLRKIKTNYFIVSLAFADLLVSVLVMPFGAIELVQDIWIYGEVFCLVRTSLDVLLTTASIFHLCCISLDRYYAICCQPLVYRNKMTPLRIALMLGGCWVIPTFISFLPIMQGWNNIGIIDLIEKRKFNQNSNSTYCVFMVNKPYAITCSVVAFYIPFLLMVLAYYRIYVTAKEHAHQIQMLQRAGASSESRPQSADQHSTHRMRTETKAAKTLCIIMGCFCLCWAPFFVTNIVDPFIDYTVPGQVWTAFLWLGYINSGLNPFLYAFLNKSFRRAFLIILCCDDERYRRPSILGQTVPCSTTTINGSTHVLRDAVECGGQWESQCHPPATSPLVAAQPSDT
- EXPERIMENT_SUMMARY: Displacement of [3H]GR-113808 from human 5HT4e receptor expressed in C6 cells
- Format: cell-based
MEASUREMENT_LABEL: Ki (µM)
Numbers only, in µM.

COc1cc(N)c(Cl)cc1C(=O)OCCN1CCC(NC(=O)CCCN(CC#Cc2ccc(C#CCN(CCCC(=O)NC3CCN(CCOC(=O)c4cc(Cl)c(N)cc4OC)CC3)C(=O)OC(C)(C)C)cc2)C(=O)OC(C)(C)C)CC1 = 0.018
COc1cc(N)c(Cl)cc1C(=O)OCCN1CCC(CNC(=O)CCCN(CCCc2ccc(CCCN(CCCC(=O)NCC3CCN(CCOC(=O)c4cc(Cl)c(N)cc4OC)CC3)C(=O)OC(C)(C)C)cc2)C(=O)OC(C)(C)C)CC1 = 0.015
COc1cc(N)c(Cl)cc1C(=O)OCCN1CCC(NC(=O)CCCN(CC#Cc2cccc(C#CCN(CCCC(=O)NC3CCN(CCOC(=O)c4cc(Cl)c(N)cc4OC)CC3)C(=O)OC(C)(C)C)c2)C(=O)OC(C)(C)C)CC1 = 0.008

For every record below, what is its Ki?
1. COc1cc(N)c(Cl)cc1C(=O)OCCN1CCC(NC(=O)CCCCCNC(=O)C2CCN(CCOC(=O)c3cc(Cl)c(N)cc3OC)CC2)CC1
2. COc1cc(N)c(Cl)cc1C(=O)OCCN1CCC(NC(=O)CCCN(CCCc2ccc(CCCN(CCCC(=O)NC3CCCCC3)C(=O)OC(C)(C)C)cc2)C(=O)OC(C)(C)C)CC1

1: 0.007; 2: 0.034

###

- TARGET_UNDER_TEST: 5-hydroxytryptamine receptor 4 (Homo sapiens)
- EXPERIMENT_SUMMARY: Binding affinity to YFP fused 5HT4 receptor expressed in CHO cells
- Assay type: cell-based
MEASUREMENT_LABEL: Ki
Show the value, then the unit it is measured in.

Cn1cc(C(=O)OCC2CCN(CCNS(C)(=O)=O)CC2)c2ccccc21 = 0.7 nM

Please find the next molecule below.
I am curious: what Ki value has been reported for "COc1cc(N)c(Cl)cc1C(=O)OCCN1CCC(NC(=O)CCCN(CCCc2ccc(CCCN(CCCC(=O)NC3CCN(CCOC(=O)c4cc(Cl)c(N)cc4OC)CC3)C(=O)OC(C)(C)C)cc2)C(=O)OC(C)(C)C)CC1" ?
10 nM

###

- TARGET_UNDER_TEST: 5-hydroxytryptamine receptor 4 (Homo sapiens)
- EXPERIMENT_SUMMARY: Binding affinity to Rluc fused 5HT4 receptor expressed in CHO cells
- Type: cell-based
MEASUREMENT_LABEL: pKi
One number for each entry, as −log10 of the molar value.

I am curious: what pKi value has been reported for "COc1cc(N)c(Cl)cc1C(=O)OCCN1CCC(NC(=O)CCCN(CCCc2ccc(CCCN(CCCC(=O)NC3CCN(CCOC(=O)c4cc(Cl)c(N)cc4OC)CC3)C(=O)OC(C)(C)C)cc2)C(=O)OC(C)(C)C)CC1" ?
8.00

###

Please respond with reported Activity for every item in the list.
- TARGET_UNDER_TEST: UniProt Q13639
- EXPERIMENT_SUMMARY: Activity at 5HT4 receptor fused with RLuc and YFP fusion proteins expressed in CHO cells by BRET dimerization assay relative to control
- Assay type: functional, cell-based
- Set-up: concentration or dose not given beside the values
Give bare numbers, in %.

COc1cc(N)c(Cl)cc1C(=O)OCCN1CCC(CNC(=O)CN(CCCc2ccc(CCCN(CC(=O)NCC3CCN(CCOC(=O)c4cc(Cl)c(N)cc4OC)CC3)C(=O)OC(C)(C)C)cc2)C(=O)OC(C)(C)C)CC1 = 114
COc1cc(N)c(Cl)cc1C(=O)OCCN1CCC(CNC(=O)CN(CC#Cc2ccc(C#CCN(CC(=O)NCC3CCN(CCOC(=O)c4cc(Cl)c(N)cc4OC)CC3)C(=O)OC(C)(C)C)cc2)C(=O)OC(C)(C)C)CC1 = 107
COc1cc(N)c(Cl)cc1C(=O)OCCN1CCC(NC(=O)CCCN(CCCc2ccc(CCCN(CCCC(=O)NC3CCN(CCOC(=O)c4cc(Cl)c(N)cc4OC)CC3)C(=O)OC(C)(C)C)cc2)C(=O)OC(C)(C)C)CC1 = 118
COc1cc(N)c(Cl)cc1C(=O)OCCN1CCC(NC(=O)CCCN(CCCc2ccc(CCCN(CCCC(=O)NC3CCCCC3)C(=O)OC(C)(C)C)cc2)C(=O)OC(C)(C)C)CC1 = 105
COc1cc(N)c(Cl)cc1C(=O)OCCN1CCC(NC(=O)CCCCCCCCCCN(CCCCCCCCCCC(=O)NC2CCN(CCOC(=O)c3cc(Cl)c(N)cc3OC)CC2)CC(=O)NCC2CCNCC2)CC1 = 114
COc1cc(N)c(Cl)cc1C(=O)OCCN1CCC(CNC(=O)CCCN(CCCc2ccc(CCCN(CCCC(=O)NCC3CCN(CCOC(=O)c4cc(Cl)c(N)cc4OC)CC3)C(=O)OC(C)(C)C)cc2)C(=O)OC(C)(C)C)CC1 = 115
COc1cc(N)c(Cl)cc1C(=O)OCCN1CCC(NC(=O)CCCCCCCCCCNc2nc(NCCCCCCCCCCC(=O)NC3CCN(CCOC(=O)c4cc(Cl)c(N)cc4OC)CC3)nc(NCc3ccccc3)n2)CC1 = 114
Cn1cc(C(=O)OCC2CCN(CCNS(C)(=O)=O)CC2)c2ccccc21 = 99

For every record below, what is its Activity?
1. COc1cc(N)c(Cl)cc1C(=O)OCCN1CCC(CCNC(=O)CCCCCCCCCCC(=O)NCCC2CCN(CCOC(=O)c3cc(Cl)c(N)cc3OC)CC2)CC1
2. COc1cc(N)c(Cl)cc1C(=O)OCCN1CCC(NC(=O)CCCN(CC#Cc2cccc(C#CCN(CCCC(=O)NC3CCN(CCOC(=O)c4cc(Cl)c(N)cc4OC)CC3)C(=O)OC(C)(C)C)c2)C(=O)OC(C)(C)C)CC1

108
109

I am curious: what Activity value has been reported for "COc1cc(N)c(Cl)cc1C(=O)OCCN1CCC(NC(=O)CCCCCCCCCCNC(=O)C2CCN(CCOC(=O)c3cc(Cl)c(N)cc3OC)CC2)CC1" ?
110
